Experiment: Cytotoxicity against human HEK293T cells assessed as survival rate at 200 micromol/L incubated for 24 hrs by CCK-8 assay relative to control
Format: toxicity, cell-based, HEK-293T
Conditions: dose 200 µmol/L, read-out: Survival
Value Type: viability at 24 h, 200 µM (%)
Report the value in % with no unit label.

Query string: Consider the compound `C=C[C@]1(C)C[C@@H](OC(=O)CSC(C)(C)CNC(=O)[C@H](N)C(C)C)[C@]2(C)[C@H](C)CC[C@]3(CCC(=O)[C@H]32)[C@@H](C)[C@@H]1O` and give its measured viability at 24 h, 200 µM.
Result string: 16

* * *

Tested on: Mycoplasma
Assay: Antibacterial activity against Mycoplasma F3 assessed as inhibition of visible bacterial growth incubated for 24 hrs by CLSI based broth microdilution method
Assay type: functional
# key: entry, value: MIC
Report the value in µg/mL with no unit label.

# annotated cases, reported MIC shown
{"columns": ["Smiles Record", "Quantity Unit", "MIC"],
 "data": [
  ["C=C[C@]1(C)C[C@@H](OC(=O)CSc2nc(OC(=O)CCCCC)cs2)[C@]2(C)[C@H](C)CC[C@]3(CCC(=O)[C@H]32)[C@@H](C)[C@@H]1O", "µg/mL", 0.5],
  ["C=C[C@]1(C)C[C@@H](OC(=O)CSc2nc(OC(=O)c3ccc(Cl)cc3)cs2)[C@]2(C)[C@H](C)CC[C@]3(CCC(=O)[C@H]32)[C@@H](C)[C@@H]1O", "µg/mL", 0.25]
]}

Shift focus to the following entry.
Query string: Consider the compound `C=C[C@]1(C)C[C@@H](OC(=O)CSc2nc(OC(=O)c3ccccc3Cl)cs2)[C@]2(C)[C@H](C)CC[C@]3(CCC(=O)[C@H]32)[C@@H](C)[C@@H]1O` and give its measured MIC.
Result string: 0.25
